target-system: rLmLAP (Leishmania major, UniProt Q7KF27)
Sequence (Q7KF27 entry or part of it): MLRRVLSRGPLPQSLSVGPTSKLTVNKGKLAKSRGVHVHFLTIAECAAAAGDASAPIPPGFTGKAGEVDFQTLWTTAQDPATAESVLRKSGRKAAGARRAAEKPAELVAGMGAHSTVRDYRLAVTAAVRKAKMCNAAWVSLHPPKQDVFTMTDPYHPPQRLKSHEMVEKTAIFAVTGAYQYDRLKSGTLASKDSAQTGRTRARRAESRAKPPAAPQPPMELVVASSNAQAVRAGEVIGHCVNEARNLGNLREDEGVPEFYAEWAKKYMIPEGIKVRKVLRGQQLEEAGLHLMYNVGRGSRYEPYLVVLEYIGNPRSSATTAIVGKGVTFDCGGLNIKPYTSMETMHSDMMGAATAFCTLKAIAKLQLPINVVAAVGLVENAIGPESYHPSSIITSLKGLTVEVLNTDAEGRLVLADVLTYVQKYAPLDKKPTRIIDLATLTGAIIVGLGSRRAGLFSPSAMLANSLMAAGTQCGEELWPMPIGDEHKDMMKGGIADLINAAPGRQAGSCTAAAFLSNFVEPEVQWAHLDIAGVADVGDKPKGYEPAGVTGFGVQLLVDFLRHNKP
protocol-details: RapidFire-MS aminopeptidase activity assay: inhibition of rLmLAP (LSTVIVR substrate)
Format: biochemical
particulars: RapidFire-MS; 5 nM enzyme, 10 μM LSTVIVR, 20 min preincubation, 0.195-100 μM; mean ± standard error (n = 3)
Method: Assays were carried out as previously described,[24] with some differences indicated below. […] For product quantification, the peak areas of the LSTVIVR peptide were integrated with respect to the internal standard LSTVIVR* peptide. […] To obtain IC50 data for screen-detected rLmLAP inhibitors at a single concentration, ten-point concentration–response curves were generated for selected inhibitors showing greater than mean ±3 SD inhibition. […]
measurement-name: IC50 (µM)
The figure you give is taken to be in µM; do not add the unit.

compound: N#CC(=Cc1cn(Cc2ccc(C(=O)O)o2)c2ccccc12)c1nc2ccccc2[nH]1
unit-descriptor: µM
reported-value: 20.2

Need IC50, item N#CC(=Cc1cn(Cc2ccc(C(=O)O)o2)c2ccccc12)c1ccc(F)cc1
35.2

Next up: Cc1cc(C(=O)N(Cc2ccco2)Cc2cc3ccc(Cl)cc3nc2N2CCCC2)n(C)n1
36.3

Same read-out for CS(=O)(=O)Nc1cc2ccccc2cc1C(=O)O ?
19

Further, for COc1ccc(S(=O)(=O)N2Cc3ccccc3CC2C(=O)O)cc1 (stereo not shown) ?
60

What do we get for Cc1ccc(C(=O)O)cc1S(=O)(=O)Nc1cccc(C2SCCS2)c1 ?
50

Try the compound O=C(O)c1ccc(-c2nccs2)s1
37.1

====

Test system: parental (WT) L. major promastigotes
protocol-details: Drug sensitivity assay (resazurin), parental L. major promastigotes
Assay type: cell-based
particulars: Leishmania major; value of the specific curve shown in Figure 4; read-out: EC50 (WT), representative curve
measurement-name: pEC50
Friendly reminder that pEC50 comes from taking -log10 of the concentration in mol/L.

smiles-input: O=C(c1cccs1)N(CCCn1ccnc1)c1nc2ccccc2s1
target-system: parental (WT) L. major promastigotes
reported-value: 5.74

Query compound follows.
Value lookup for pEC50; key = COc1ccc(Cc2c(N)nc(-c3ccccn3)nc2N)cc1
5.96
